Values from patent US9556135B2

# TESTED_ON: Cathepsin D (Cat D) (Homo sapiens (Human), UniProt P07339)
# Sequence (P07339 65-412, species assumed): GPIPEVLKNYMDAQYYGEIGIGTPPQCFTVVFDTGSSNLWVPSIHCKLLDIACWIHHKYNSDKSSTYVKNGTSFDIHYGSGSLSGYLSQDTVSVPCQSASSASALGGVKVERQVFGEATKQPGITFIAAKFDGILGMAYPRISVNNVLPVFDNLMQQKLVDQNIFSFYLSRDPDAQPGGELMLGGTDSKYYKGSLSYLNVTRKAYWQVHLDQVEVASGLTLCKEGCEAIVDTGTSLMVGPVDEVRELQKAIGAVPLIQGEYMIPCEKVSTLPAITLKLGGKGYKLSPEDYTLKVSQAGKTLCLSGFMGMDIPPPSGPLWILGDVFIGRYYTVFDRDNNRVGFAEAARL
# EXPERIMENT_NOTES: In vitro enzymatic Cathepsin D (Cat D) FRET assay
# Assay type: biochemical
# APPLIED_CONDITIONS: Cathepsin D FRET assay; read-out: CatD IC50
PARAMETER_MEASURED: IC50 (µM)

[
  {
    "MOLECULE": "CO[C@H]1C[C@]2(C1)C(N)=N[C@](C)(c1cc(NC(=O)c3ncc(Cl)cc3C)ccc1F)CS2(=O)=O",
    "COMPARISON_SIGN": "=",
    "RECORDED_VALUE": 466
  },
  {
    "MOLECULE": "Cc1c(C(=O)Nc2ccc(F)c([C@]3(C)CS(=O)(=O)[C@]4(C[C@@H](F)C4)C(N)=N3)c2)nc2ccc(Cl)cn12",
    "COMPARISON_SIGN": "=",
    "RECORDED_VALUE": 67.4
  },
  {
    "MOLECULE": "COc1cnc(C(=O)Nc2ccc(F)c([C@]3(C)CS(=O)(=O)[C@]4(C[C@@H](F)C4)C(N)=N3)c2)c(C)c1",
    "COMPARISON_SIGN": "=",
    "RECORDED_VALUE": 76.5
  },
  {
    "MOLECULE": "COc1cnc(C(=O)Nc2ccc(F)c([C@]3(C)CS(=O)(=O)[C@]4(C[C@H](OC)C4)C(N)=N3)c2)c(C)c1",
    "COMPARISON_SIGN": "=",
    "RECORDED_VALUE": 399
  },
  {
    "MOLECULE": "CC1(C)C(N)=N[C@]2(c3cc(N)ccc3F)COC[C@@H]2S1(=O)=O [Example 185d]",
    "COMPARISON_SIGN": "=",
    "RECORDED_VALUE": 152
  },
  {
    "MOLECULE": "Cc1c(C(=O)Nc2ccc(F)c([C@@]3(C)N=C(N)C4(CC4)S(=O)(=O)[C@H]3F)c2)nc2ccc(Cl)cn12",
    "COMPARISON_SIGN": "=",
    "RECORDED_VALUE": 60.1
  },
  {
    "MOLECULE": "CC1(C)C(N)=N[C@@]2(c3cc(N)ccc3F)COC[C@H]2S1(=O)=O [Example 185c]",
    "COMPARISON_SIGN": ">",
    "RECORDED_VALUE": 400
  }
]
